biological target: Protein cereblon/Aurora kinase A (Homo sapiens) (UniProt O14965+Q96SW2); experiment: PROTAC activity at AURKA/CRBN in human NGP cells assessed as AURKA degradation measured for 24 hrs by Western blot analysis; type: cell-based; conditions: dose 10-1000 nM
Sequence (O14965 whole entry, looked up): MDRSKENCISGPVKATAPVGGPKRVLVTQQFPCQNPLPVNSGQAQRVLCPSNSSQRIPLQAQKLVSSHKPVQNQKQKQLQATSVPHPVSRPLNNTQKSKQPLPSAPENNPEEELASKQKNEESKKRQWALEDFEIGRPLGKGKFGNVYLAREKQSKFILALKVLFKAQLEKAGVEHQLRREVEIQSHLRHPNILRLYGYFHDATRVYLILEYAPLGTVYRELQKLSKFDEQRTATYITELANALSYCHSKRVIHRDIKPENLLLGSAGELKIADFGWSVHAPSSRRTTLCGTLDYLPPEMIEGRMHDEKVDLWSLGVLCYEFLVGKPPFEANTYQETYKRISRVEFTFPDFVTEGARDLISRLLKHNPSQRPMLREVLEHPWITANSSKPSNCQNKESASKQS
Sequence (Q96SW2 whole entry, looked up): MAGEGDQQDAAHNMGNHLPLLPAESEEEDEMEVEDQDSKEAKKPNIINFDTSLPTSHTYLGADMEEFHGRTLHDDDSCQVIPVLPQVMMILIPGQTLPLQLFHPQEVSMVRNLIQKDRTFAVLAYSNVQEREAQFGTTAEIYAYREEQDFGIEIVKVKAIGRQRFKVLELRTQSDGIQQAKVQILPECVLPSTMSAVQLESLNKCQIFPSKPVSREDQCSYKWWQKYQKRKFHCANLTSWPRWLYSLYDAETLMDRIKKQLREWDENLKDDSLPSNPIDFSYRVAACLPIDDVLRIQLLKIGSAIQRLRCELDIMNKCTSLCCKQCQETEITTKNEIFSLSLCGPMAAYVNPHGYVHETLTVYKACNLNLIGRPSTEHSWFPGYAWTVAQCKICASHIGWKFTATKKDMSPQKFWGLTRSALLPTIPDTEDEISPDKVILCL
Active and inactive are the calls of the source. No cut-off for these calls is given here.
The reply should be one of these categories: class 1 for active, class 0 for inactive

Here's what some known entries look like.
• O=C1CCC(N2C(=O)c3cccc(OCCOCCOCCNC(=O)[C@]4(Cc5cccc(Nc6nccs6)n5)CC[C@@H](Oc5cccc(Cl)c5F)CC4)c3C2=O)C(=O)N1 (stereo not given in full) = class 1
• O=C1CCC(N2C(=O)c3cccc(OCCOCCNC(=O)[C@]4(Cc5cccc(Nc6nccs6)n5)CC[C@@H](Oc5cccc(Cl)c5F)CC4)c3C2=O)C(=O)N1 (stereo not given in full) = class 0
• O=C1CCC(N2C(=O)c3cccc(OCCOCCOCCOCCNC(=O)[C@]4(Cc5cccc(Nc6nccs6)n5)CC[C@@H](Oc5cccc(Cl)c5F)CC4)c3C2=O)C(=O)N1 (stereo not given in full) = class 1
• O=C1CCC(N2C(=O)c3cccc(OCCOCCOCCOCCOCCNC(=O)[C@]4(Cc5cccc(Nc6nccs6)n5)CC[C@@H](Oc5cccc(Cl)c5F)CC4)c3C2=O)C(=O)N1 (stereo not given in full) = class 1

Attention now shifts to the item below.
### Prompt // return assay outcome for O=C(COc1cccc2c1C(=O)N(C1CCC(=O)NC1=O)C2=O)NCCOCCOCCNC(=O)[C@]1(Cc2cccc(Nc3nccs3)n2)CC[C@@H](Oc2cccc(Cl)c2F)CC1 (stereo not given in full)
### Response class 1

----------
test system: SK-N-AS; assay: Antiproliferative activity against human SK-N-AS cells assessed as reduction in cell viability incubated for 48 hrs; format: functional, cell-based; settings: Homo sapiens, SK-N-AS, 48 h; read-out: IC50
MEASURED ATTRIBUTE: pIC50
Here pIC50 is given on a logarithmic scale as minus log10 of the concentration in mol/L.

### Prompt API: value(readout=pIC50, system=SK-N-AS) for record O=C1CCC(N2C(=O)c3cccc(OCCOCCOCCOCCNC(=O)[C@]4(Cc5cccc(Nc6nccs6)n5)CC[C@@H](Oc5cccc(Cl)c5F)CC4)c3C2=O)C(=O)N1 (stereo partly specified)
### Response 5.17

These entries and their values trace back to ChEMBL document CHEMBL5331087.
